Where do the numbers come from? From PubChem BioAssay.

test: reversal of MRP1-mediated doxorubicin resistance, pilot screen, H69AR cells, doxorubicin co-treatment (AID 601); conditions: H69AR cells + 2 uM doxorubicin, CellTiter-Glo, 72 h; measured here: viability with 2 uM doxorubicin; at 10 µM; stronger effect = lower value
Square brackets hold non-standard residues; d marks the D form. Peptide text beside a SMILES is read from it. * marks the point of attachment. ξ: configuration not given here. Piv = CC(C)(C)C(=O)*; ξNva = CCCC(N)C(=O)O
Checkbox rule: viability lower than 90% = rule met; viability not lower than 90% = rule not met.

Examples from the recorded data:
>  <compound>
CC1=C(C)[N+](=O)C2CCCCC2N1[O-] (stereo unspecified)

>  <label_class>
rule met

$$$$
>  <compound>
CCN(CC)c1ccc(-c2c(C#N)c(N)nc(OC)c2C#N)cc1

>  <label_class>
rule met

$$$$
>  <compound>
Clc1ccc(CSc2nnc(Cn3cnc4ccccc43)o2)cc1

>  <label_class>
rule not met

$$$$
>  <compound>
COC(=O)C1=C(C)OC(N)=C(C#N)C1c1ccccc1 (stereo unspecified)

>  <label_class>
rule met

$$$$

Answer whether the compound "CC(=O)Nc1ccccc1OCc1nnc(-c2cccs2)o1" has viability strictly less than 90% rule met

Answer whether the compound "COc1cccc(OC)c1C(=O)N1CCN(S(=O)(=O)c2ccc(C)cc2)CC1" has viability strictly less than 90% rule not met

Answer whether the compound "COCCOc1nc2ccccc2nc1C" has viability strictly less than 90% rule met

Answer whether the compound Cc1ccc(C(c2nnnn2CCC(C)C)N2CCN(C)CC2)cc1 (stereo unspecified) has viability strictly less than 90% rule not met

Answer whether the compound "COC(=O)c1cc(Br)c(=O)n(-c2ccc(OC)cc2)c1" has viability strictly less than 90% rule met

Answer whether the compound Cc1ccc(C(=O)C2COC(=O)C2)cc1 (stereo unspecified) has viability strictly less than 90% rule met

Answer whether the compound "O=c1oc2ccccc2n1CCc1ccccc1" has viability strictly less than 90% rule met

Answer whether the compound "CCCCN(CC)CCCNC(=O)CS(=O)(=O)Cc1nc(-c2cccc(OC)c2)oc1C" has viability strictly less than 90% rule met

Answer whether the compound "O=C(CNS(=O)(=O)c1ccc(Br)s1)N1CCN(c2ncccn2)CC1" has viability strictly less than 90% rule not met

Answer whether the compound "COc1ccc(Oc2c(C)oc3cc(OC(=O)N4CCOCC4)ccc3c2=O)cc1" has viability strictly less than 90% rule not met

Answer whether the compound "O=C(Nc1ccc2c(c1)OCCO2)c1ccco1" has viability strictly less than 90% rule met

Answer whether the compound CC1=C(C(=O)N2CCCCC2)C2(CCC(C)CC2)OC1=O (stereo unspecified) has viability strictly less than 90% rule met

Answer whether the compound COC(=O)C1=C(C)NC(=O)C1(Nc1ccc(Cl)cn1)C(F)(F)F (stereo unspecified) has viability strictly less than 90% rule not met

Answer whether the compound CCCC(NC(=O)CNC(=O)C(C)(C)C)C(=O)O (stereo not drawn) (Piv-Gly-[ξNva]-OH) has viability strictly less than 90% rule not met

Answer whether the compound "CCOC(=O)C1CCN(C(=O)COc2ccc(Cl)cc2Cl)CC1" has viability strictly less than 90% rule met

Answer whether the compound "Cc1ccc2oc(C(=O)Nc3c(C)n(C)n(-c4ccccc4)c3=O)c(C)c2c1" has viability strictly less than 90% rule met

Answer whether the compound "COc1ccc(S(=O)(=O)N2CCN(CC(=O)Nc3ccc(C)c(F)c3)CC2)cc1" has viability strictly less than 90% rule met

Answer whether the compound "CCOC(=O)c1sc2ncn(/N=C/N(C)C)c(=O)c2c1C" has viability strictly less than 90% rule not met

Answer whether the compound "CCc1nnc2c3cnn(-c4ccccc4)c3ncn12" has viability strictly less than 90% rule not met

Answer whether the compound "COCCn1c(SCC(=O)Nc2cccc(OC)c2)nnc1-c1ccccc1" has viability strictly less than 90% rule not met

Answer whether the compound "COCCn1c(CN2CCN(c3cccc(Cl)c3)CC2)nc2c1c(=O)n(C)c(=O)n2C" has viability strictly less than 90% rule met

Answer whether the compound "O=C1CCCC(O)=C1C=Nc1ccc2c(c1)oc1ccccc12" has viability strictly less than 90% rule not met

Answer whether the compound "CCN1C(=O)Cc2cc(S(=O)(=O)N3CCOCC3)ccc21" has viability strictly less than 90% rule not met
